# measuredTarget: Inadl_10, Q8NI35
# Sequence (Q8NI35 1673-1763): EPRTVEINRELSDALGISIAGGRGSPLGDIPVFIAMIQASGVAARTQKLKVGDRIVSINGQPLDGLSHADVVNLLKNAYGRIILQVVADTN
# protocolText: holdup assay
# Design: key: below the threshold = too weak to quantify, mostly under pKd 3.1 to 4
# assayConditions: plain residues with an end cap or a label only (N-terminal biotin on a linker: ado-ado)
resultType: pKd

>>> recordedmeasurement("QKNKDKEYYV [NRXN3_rs746444206, Q9Y4C0]")
"below the threshold"
>>> recordedmeasurement("TETASVCTKV [SLC23A1, Q9UHI7]")
3.78
>>> recordedmeasurement("FVHPILQSAV [PRKCA, P17252]")
"below the threshold"
>>> recordedmeasurement("EEPEERHTEL [CES2, O00748]")
"below the threshold"
>>> recordedmeasurement("GFGEERESIL [KIDINS220, Q9ULH0]")
"below the threshold"
